Cited source for all entries: patent US20200199204A1

Would you mind telling me the reported neutralization IC50 of each entry?
target: HIV-1 Env of 191821.E6.1 (HIV-1); test: cell-based or functional assay

Per the record, CAP256-VRC26.09 (antibody, V domains shown) VH: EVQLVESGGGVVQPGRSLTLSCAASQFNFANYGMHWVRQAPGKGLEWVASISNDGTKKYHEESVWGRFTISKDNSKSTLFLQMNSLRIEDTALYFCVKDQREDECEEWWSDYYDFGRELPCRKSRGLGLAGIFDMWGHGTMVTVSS VL: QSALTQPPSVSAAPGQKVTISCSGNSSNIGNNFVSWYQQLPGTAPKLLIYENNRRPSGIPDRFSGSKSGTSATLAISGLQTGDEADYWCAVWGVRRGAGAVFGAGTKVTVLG has neutralization IC50 of 0.054 µg/mL

neutralization IC50 in this record for CAP256-VRC26.06 (antibody, V domains shown) VH: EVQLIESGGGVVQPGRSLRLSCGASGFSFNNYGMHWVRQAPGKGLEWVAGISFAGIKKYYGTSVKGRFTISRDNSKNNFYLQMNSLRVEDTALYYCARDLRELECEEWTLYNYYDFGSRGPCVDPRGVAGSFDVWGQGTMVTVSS VL: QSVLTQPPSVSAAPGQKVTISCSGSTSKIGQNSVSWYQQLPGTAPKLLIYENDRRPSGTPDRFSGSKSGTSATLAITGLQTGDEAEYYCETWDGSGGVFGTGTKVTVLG : > 50 µg/mL

Per the record, CAP256-VRC26.02 (antibody, V domains shown) VH: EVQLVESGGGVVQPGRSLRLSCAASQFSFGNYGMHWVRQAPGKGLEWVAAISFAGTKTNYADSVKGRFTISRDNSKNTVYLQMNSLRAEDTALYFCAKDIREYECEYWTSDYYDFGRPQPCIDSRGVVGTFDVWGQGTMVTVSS VL: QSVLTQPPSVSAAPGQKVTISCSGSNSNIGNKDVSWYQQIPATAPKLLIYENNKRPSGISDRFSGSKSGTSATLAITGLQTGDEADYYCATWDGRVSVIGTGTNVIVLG has neutralization IC50 of > 50 µg/mL

Record CAP256-VRC26.08 (antibody, V domains shown) VH: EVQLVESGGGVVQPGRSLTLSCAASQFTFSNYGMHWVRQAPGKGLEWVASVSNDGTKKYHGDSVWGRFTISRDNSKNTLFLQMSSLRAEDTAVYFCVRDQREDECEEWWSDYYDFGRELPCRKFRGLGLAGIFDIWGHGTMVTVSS VL: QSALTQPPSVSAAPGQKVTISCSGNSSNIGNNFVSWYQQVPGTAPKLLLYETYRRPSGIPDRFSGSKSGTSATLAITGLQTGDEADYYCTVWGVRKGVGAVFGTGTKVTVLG . Reported neutralization IC50: 0.37 µg/mL

// neutralization IC50 value for CAP256-VRC26.03 (antibody, V domains shown) VH: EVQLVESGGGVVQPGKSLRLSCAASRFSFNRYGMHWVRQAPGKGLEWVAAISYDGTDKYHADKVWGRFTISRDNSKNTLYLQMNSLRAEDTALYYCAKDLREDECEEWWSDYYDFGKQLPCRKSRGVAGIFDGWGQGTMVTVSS VL: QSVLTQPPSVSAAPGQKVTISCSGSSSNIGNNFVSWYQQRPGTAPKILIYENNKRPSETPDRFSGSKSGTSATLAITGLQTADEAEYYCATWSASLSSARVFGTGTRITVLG : > 50 µg/mL

Data point: CAP256-VRC26.07 (antibody, V domains shown) VH: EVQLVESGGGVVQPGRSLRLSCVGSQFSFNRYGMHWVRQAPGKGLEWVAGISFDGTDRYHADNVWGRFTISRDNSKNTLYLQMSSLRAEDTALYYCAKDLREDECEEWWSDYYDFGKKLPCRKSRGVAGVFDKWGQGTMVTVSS VL: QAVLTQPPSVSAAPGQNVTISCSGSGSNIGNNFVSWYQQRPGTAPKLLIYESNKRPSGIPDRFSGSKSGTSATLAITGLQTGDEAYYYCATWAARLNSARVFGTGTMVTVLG ; neutralization IC50 = > 50 µg/mL

Sure, the documented neutralization IC50 for CAP256-VRC26.05 (antibody, V domains shown) VH: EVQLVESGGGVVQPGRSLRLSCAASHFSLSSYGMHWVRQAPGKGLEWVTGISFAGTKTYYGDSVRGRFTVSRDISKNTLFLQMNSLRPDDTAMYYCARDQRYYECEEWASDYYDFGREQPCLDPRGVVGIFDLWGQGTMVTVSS VL: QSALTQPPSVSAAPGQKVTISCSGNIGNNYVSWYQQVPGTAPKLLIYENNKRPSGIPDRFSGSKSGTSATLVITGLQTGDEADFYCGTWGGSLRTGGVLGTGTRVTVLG is > 50 µg/mL

get_value(item= CAP256-VRC26.12 (antibody, V domains shown) VH: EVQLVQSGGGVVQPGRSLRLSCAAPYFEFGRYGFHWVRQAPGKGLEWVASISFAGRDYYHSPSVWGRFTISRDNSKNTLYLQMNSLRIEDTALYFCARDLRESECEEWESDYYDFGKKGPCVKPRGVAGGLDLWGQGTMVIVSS VL: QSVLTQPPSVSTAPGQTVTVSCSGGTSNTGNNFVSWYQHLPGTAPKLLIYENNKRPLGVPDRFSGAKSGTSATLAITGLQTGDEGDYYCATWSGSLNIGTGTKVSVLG , readout=neutralization IC50) returns > 50 µg/mL

Recorded neutralization IC50 (binder CAP256-VRC26.01 (antibody, V domains shown) VH: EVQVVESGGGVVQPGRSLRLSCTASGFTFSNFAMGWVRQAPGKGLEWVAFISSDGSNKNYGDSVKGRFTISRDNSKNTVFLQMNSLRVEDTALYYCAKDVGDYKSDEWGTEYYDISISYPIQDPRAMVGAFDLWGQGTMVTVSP VL: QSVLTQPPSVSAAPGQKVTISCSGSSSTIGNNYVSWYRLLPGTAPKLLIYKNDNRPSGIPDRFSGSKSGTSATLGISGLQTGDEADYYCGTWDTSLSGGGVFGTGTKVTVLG ): > 50 µg/mL
